As shown below, each of these molecules has a reported pKi value.
# test_target: Human recombinant MMP-14 (Homo sapiens, UniProt P50281)
# Construct: The catalytic domain enzyme was expressed in E. coli inclusion bodies, solubilized in urea; made in house
# protocol_description: In vitro MMP inhibition, Ki determination (fluorogenic substrate II)
# Type: biochemical
# condition_description: value in parentheses
pKi: −log10 of the molar value.

Guide cases for pKi, answers given:
{"molecule": "O=C(NO)C1(S(=O)(=O)c2ccc(OCCCc3cccc(-c4ccoc4)c3)cc2)CCOCC1 [Example 637]", "test_target": "Human recombinant MMP-14 (Homo sapiens, UniProt P50281)", "pKi": "< 5.00"}
{"molecule": "O=C(NO)C1(S(=O)(=O)c2ccc(OCCCc3cccc(-c4csc5ccccc45)c3)cc2)CCOCC1 [Example 631]", "test_target": "Human recombinant MMP-14 (Homo sapiens, UniProt P50281)", "pKi": "< 5.00"}
{"molecule": "O=C(NO)C1(S(=O)(=O)c2ccc(OCCCc3cccc(-c4coc5ccccc45)c3)cc2)CCOCC1 [Example 634]", "test_target": "Human recombinant MMP-14 (Homo sapiens, UniProt P50281)", "pKi": "< 5.00"}

Exam item: Suppose we examine the molecule Cc1ccc(-c2cccc(CCCOc3ccc(S(=O)(=O)C4(C(=O)NO)CCOCC4)cc3)c2)s1 [Example 639] ; what pKi value has been reported?
Marked response: < 5.00

Exam item: Which value of pKi has been reported for O=C(NO)C1(S(=O)(=O)c2ccc(OCCCc3cccc(-c4ccc5ccccc5c4)c3)cc2)CCOCC1 [Example 629] in the records?
Marked response: < 5.00

Exam item: Given the entry O=C(NO)C1(S(=O)(=O)c2ccc(OCCCc3cccc(-c4ccc(C(F)(F)F)cc4)c3)cc2)CCOCC1 [Example 625] , report its measured pKi.
Marked response: < 5.00
